Study System: biotinylated CD59 (Homo sapiens, UniProt P13987)
Construct: Recombinant soluble human CD59 with an additional C-terminal cysteine residue
Sequence (P13987 26-102 limits assumed): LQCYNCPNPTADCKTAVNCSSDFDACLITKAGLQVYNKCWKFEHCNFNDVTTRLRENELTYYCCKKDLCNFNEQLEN
Test Method Notes: mRNA-display cyclic peptide screen against CD59-biotin, NGS abundance after 6th selection round
Cond: NGS sample Seq II, sheet R6 (6th selection round)
Result Type: Counts (raw counts for peptide sequence), Seq II

>>> endpoint_result("WRDRFDQCVI")
5
>>> endpoint_result("CFLNRASFSGI")
6
>>> endpoint_result("CSAGRLTIDAV")
6
>>> endpoint_result("CYGGRTFIYAWL")
8
>>> endpoint_result("CFLTRASQLSGT")
4
>>> endpoint_result("PFAKRVAAQGGC")
6
>>> endpoint_result("CYGNSHAS")
8
>>> endpoint_result("CFSSRTGTTSV")
10
>>> endpoint_result("SWTWGNRSSVSG")
2
>>> endpoint_result("HCWVRGSRNYS")
5
>>> endpoint_result("HVFGNRSYTRG")
7
>>> endpoint_result("SAWGNRKIQYY")
5
>>> endpoint_result("CFIRRSIESGTA")
10
>>> endpoint_result("RRDRFDQCVL")
5
>>> endpoint_result("WRDRFDQCIL")
5
>>> endpoint_result("VARGSKDWRWS")
6
>>> endpoint_result("IARGDRNHQFF")
6
>>> endpoint_result("CFQNRMAYGDI")
7
>>> endpoint_result("CYGGRTFIYSWS")
8
>>> endpoint_result("CFVNRLGSAESR")
9

* * *

# Counts Seq II per entry
Study System: biotinylated CD59 (Homo sapiens, UniProt P13987)
Construct: Recombinant soluble human CD59 with an additional C-terminal cysteine residue
Sequence (P13987 26-102 limits assumed): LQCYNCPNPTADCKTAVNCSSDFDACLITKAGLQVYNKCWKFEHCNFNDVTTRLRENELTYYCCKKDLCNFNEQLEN
Test Method Notes: mRNA-display cyclic peptide screen against CD59-biotin, NGS abundance after 6th selection round
Cond: raw NGS counts of peptide sequence, sequencing sample Seq II, sheet R6 (6th selection round)
Result Type: Counts Seq II

>>> endpoint_result("SWQNECFRLRT")
11
>>> endpoint_result("IASGSLHFVFY")
14
>>> endpoint_result("SAWGNRQIQYF")
13
>>> endpoint_result("CFQNRVTSDSAK")
61
>>> endpoint_result("CFARRLSSSHSL")
67
>>> endpoint_result("SWTWGDRSSVRG")
10
>>> endpoint_result("SAWGNQQIQYY")
11
>>> endpoint_result("ARGGPTWSRG")
16
>>> endpoint_result("SARGNRQIQYY")
12
>>> endpoint_result("CYGGRTFTYAWS")
132
>>> endpoint_result("FKYGNSNFVRG")
17
>>> endpoint_result("HCWVRGSRSYT")
9
>>> endpoint_result("LCYVKGSKDFT")
8
>>> endpoint_result("LCSVRGSNDWI")
32
>>> endpoint_result("CFNSRLHIGAV")
25
>>> endpoint_result("VWGNRWTRIYW")
15
>>> endpoint_result("HVSGNRSFTRG")
15
>>> endpoint_result("CFTHRLTDFGT")
30
>>> endpoint_result("SSWAQLPCRR")
30
>>> endpoint_result("CFSHRSNSDGI")
35
>>> endpoint_result("VSRGDSTYTLF")
12
>>> endpoint_result("ISRGDARYTWG")
10
>>> endpoint_result("HVFGNGSFTRG")
15
>>> endpoint_result("LQPPDRSCLPKI")
13
>>> endpoint_result("SAWGNRQVQYY")
50

* * *

# Percentage Seq I per entry
Study System: biotinylated CD59 (Homo sapiens, UniProt P13987)
Construct: Recombinant soluble human CD59 with an additional C-terminal cysteine residue
Sequence (P13987 26-102 limits assumed): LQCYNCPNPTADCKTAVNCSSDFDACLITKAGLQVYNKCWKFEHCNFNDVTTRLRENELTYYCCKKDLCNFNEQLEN
Test Method Notes: mRNA-display cyclic peptide screen against CD59-biotin, NGS abundance after 6th selection round
Cond: counts normalised by total counts of sample Seq I; percentage of the pool, sheet R6
Result Type: Percentage Seq I (%)

>>> endpoint_result("CYGGQTFIYAWS")
0.026
>>> endpoint_result("CYGGRTFIYAWP")
0.060
>>> endpoint_result("VAHGSKKSQFW")
0.088
>>> endpoint_result("HVFGNGSFTRG")
0.031
>>> endpoint_result("CFSTRLSRSYGT")
0.016
>>> endpoint_result("SSWAQLPCRS")
0.041
>>> endpoint_result("FVTGNRNHTRG")
0.032
>>> endpoint_result("FVAGNRDHTRG")
0.023
>>> endpoint_result("GPRNECHSQFQN")
0.092
>>> endpoint_result("LCAENPLRPR")
0.075
>>> endpoint_result("LQPPDRSCLPKI")
0.029
>>> endpoint_result("FVRGDLHSVLG")
0.058
>>> endpoint_result("CFRYRVTPTSY")
0.023
>>> endpoint_result("FKYGNSNFVRG")
0.035
>>> endpoint_result("HCWVRGGRNYT")
0.024
>>> endpoint_result("CFSQRLDRTSS")
0.027
>>> endpoint_result("FVTGNRDYTRG")
0.050
>>> endpoint_result("DPWCTPFSNVT")
0.186
>>> endpoint_result("CYGGRTFIYACS")
0.019
>>> endpoint_result("CFSYRIRSAYDL")
0.028
>>> endpoint_result("VARGNSNTVWG")
0.019
>>> endpoint_result("IAFGSRFHSYQ")
0.584
>>> endpoint_result("CFVNRLRSAESR")
0.141
>>> endpoint_result("CFTGRLSLDSI")
0.031
>>> endpoint_result("CFSHRPGPSI")
0.147
>>> endpoint_result("QWNRWYGIDER")
0.021
>>> endpoint_result("HVIGNRSFTRG")
0.020
>>> endpoint_result("CYGGRAFIYAWS")
0.042
>>> endpoint_result("SAWGNQQIQYY")
0.028
>>> endpoint_result("CFGRRADPDGI")
0.040
>>> endpoint_result("FATGNRDHTRG")
0.027
>>> endpoint_result("CFKHRLGTDSA")
0.097
>>> endpoint_result("FVMGNRDHTRG")
0.017
>>> endpoint_result("QFAHRISSCAS")
0.032
>>> endpoint_result("STYNDFFRVPC")
0.149
>>> endpoint_result("HVFGNRSFTSG")
0.017
>>> endpoint_result("SRGGKDWSRG")
0.235
>>> endpoint_result("CYGGRTFIHAWS")
0.054
>>> endpoint_result("HVLGNRSFTRG")
0.071
>>> endpoint_result("CEALLRRGWD")
0.094
>>> endpoint_result("FIRGNSTSVLF")
1.617
>>> endpoint_result("FVTGDRDHTRG")
0.127

* * *

# Percentage Seq II per entry
Study System: biotinylated CD59 (Homo sapiens, UniProt P13987)
Construct: Recombinant soluble human CD59 with an additional C-terminal cysteine residue
Sequence (P13987 26-102 limits assumed): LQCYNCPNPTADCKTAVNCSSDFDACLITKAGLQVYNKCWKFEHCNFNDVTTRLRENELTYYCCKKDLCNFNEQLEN
Test Method Notes: mRNA-display cyclic peptide screen against CD59-biotin, NGS abundance after 6th selection round
Cond: counts normalised by total counts of sample Seq II; percentage of the pool, sheet R6
Result Type: Percentage Seq II (%)

>>> endpoint_result("SWTWGNGSSVRG")
0.186
>>> endpoint_result("FVRGGLYSVLG")
0.019
>>> endpoint_result("WSTGSSTFAAG")
0.042
>>> endpoint_result("CHGGRTFIYAWS")
0.026
>>> endpoint_result("CFSNRISGPAV")
0.214
>>> endpoint_result("FVRGDLYSVRG")
0.032
>>> endpoint_result("ARGGPTWSRG")
0.037
>>> endpoint_result("FISGSRSWRKQ")
0.023
>>> endpoint_result("CFVNRLRSAESR")
0.144
>>> endpoint_result("CFANRLYGSDSR")
0.039
>>> endpoint_result("WILGSRWWTQT")
0.030
>>> endpoint_result("CAWGNRHIAYY")
0.195
>>> endpoint_result("FVTGNRDYTRG")
0.063
>>> endpoint_result("TISGGRDYTRG")
0.935
>>> endpoint_result("CFAKRLSLDAL")
0.176
>>> endpoint_result("SWTWGNRSTVRG")
0.026
>>> endpoint_result("WRDRFDQCVP")
0.053
>>> endpoint_result("LGGRGCFRPCSAAAAAAARTGGG")
0.042
>>> endpoint_result("CFTYRLSDEPSA")
0.016
>>> endpoint_result("QPFWGCRTVAYS")
0.049
>>> endpoint_result("ILGSRDTIKYW")
0.167
>>> endpoint_result("CFSRRLTAGAS")
0.028
>>> endpoint_result("FATGNRDHTRG")
0.014
>>> endpoint_result("CFQNRVSGSGAL")
0.116
>>> endpoint_result("HVFGSRSFTRG")
0.084
>>> endpoint_result("EARGTKSFAYY")
0.100
>>> endpoint_result("HCWARGSRNYT")
0.035
>>> endpoint_result("CFAHRITDPDTQ")
0.019
>>> endpoint_result("CYGGRTFIYAWT")
0.035
>>> endpoint_result("ISWGNGSLAFY")
0.116
>>> endpoint_result("DPWCTPFSNVT")
0.209
>>> endpoint_result("YAQGDKLTARG")
0.026
>>> endpoint_result("CFSWRLGPAEK")
0.028
>>> endpoint_result("CYGGRTFIYACS")
0.021
>>> endpoint_result("CLRLHREPGSL")
0.135
>>> endpoint_result("GRLNECHAIWP")
0.104
>>> endpoint_result("RGGTRDTIWG")
0.063
>>> endpoint_result("WRDRLDQCVL")
0.021
>>> endpoint_result("GPRNECHSQFQN")
0.086
>>> endpoint_result("CYGGRTFIYARS")
0.016
>>> endpoint_result("CFARRVNNSSL")
0.028
>>> endpoint_result("HAFGSRDITYY")
0.272
